# Tested on: sorghum
# procedure_details: Test A post-emergence
# Assay type: in vivo
# Set-up: key: 0 = no effect, 10 = maximum effect; letter = response symbol
# applied_conditions: 0.4 kg/ha
measured_parameter: response rating (C)
Report as a plain number; the unit C is understood.

[in] Identify response rating associated with the compound CNC(=O)c1ccccc1S(=O)(=O)NC(=O)Nc1nc(C)cc(OC)n1 [drawing 466]
[out] 10

[in] Identify response rating associated with the compound COc1cc(C)nc(NC(=O)NS(=O)(=O)c2ccccc2C(=O)NC(C)C)n1 [drawing 463]
[out] 9

* * *

# Tested on: rice
# procedure_details: Test A post-emergence
# Assay type: in vivo
# Design: key: 0 = no effect, 10 = maximum effect; letter = response symbol
# applied_conditions: 0.4 kg/ha
measured_parameter: response rating (C)
Report as a plain number; the unit C is understood.

[in] Identify response rating associated with the compound COc1cc(C)nc(NC(=O)NS(=O)(=O)c2ccccc2C(=O)OCCOCCOCCCl)n1 [drawing 448]
[out] 8

[in] Identify response rating associated with the compound COCCCOc1cc(C)nc(NC(=O)NS(=O)(=O)c2ccccc2C(=O)OC)n1 [drawing 470]
[out] 8

[in] Identify response rating associated with the compound COC(=O)c1cc(Cl)c(Cl)cc1S(=O)(=O)NC(=O)Nc1nc(C)cc(OC)n1 [drawing 452]
[out] 2

[in] Identify response rating associated with the compound COC(=O)c1ccccc1S(=O)(=O)NC(=O)Nc1nc(C)nc(OC)n1 [drawing 415]
[out] 10

[in] Identify response rating associated with the compound COc1cc(C)nc(NC(=O)NS(=O)(=O)c2ccccc2C(=O)N(C)C)n1 [drawing 465]
[out] 9

[in] Identify response rating associated with the compound COC(=O)c1ccccc1S(=O)(=O)NC(=O)Nc1nc(C)nc(N(C)C)n1 [drawing 472]
[out] 10

[in] Identify response rating associated with the compound COC(=O)c1cc(F)ccc1S(=O)(=O)NC(=O)Nc1nc(C)nc(OC)n1 [drawing 450]
[out] 9

[in] Identify response rating associated with the compound COC(=O)c1cc(Cl)ccc1S(=O)(=O)NC(=O)Nc1nc(C)cc(OC)n1 [drawing 434]
[out] 9

[in] Identify response rating associated with the compound COc1cc(C)nc(NC(=O)NS(=O)(=O)c2ccccc2C(=O)SC2CCCCC2)n1 [drawing 476]
[out] 9

[in] Identify response rating associated with the compound COc1nc(NC(=O)NS(=O)(=O)c2ccccc2C(=O)OC(C)C)nc(OC)n1 [drawing 438]
[out] 8

[in] Identify response rating associated with the compound C=CCOC(=O)c1ccccc1S(=O)(=O)NC(=O)Nc1nc(C)nc(OC)n1 [drawing 451]
[out] 9

[in] Identify response rating associated with the compound CCOC(=O)c1ccccc1S(=O)(=O)NC(=O)Nc1nc(OC)cc(OC)n1 [drawing 442]
[out] 9

[in] Identify response rating associated with the compound COC(=O)c1ccccc1S(=O)(=O)NC(=O)Nc1nc(OC)cc(OC(C)C(=O)OC)n1 (centres unmarked) [drawing 468]
[out] 9

[in] Identify response rating associated with the compound COC(=O)c1ccccc1S(=O)(=O)NC(=O)Nc1nc(C)cc(C)n1 [drawing 412]
[out] 10

Origin of values: patent US4383113A
